tested on: RVFV strain MP12; type: cell-based, Rift Valley fever virus
result-type: reduction of N and Gn expression

>>> val("COc1ccc(CN2C(=O)C(=O)c3cc(C)ccc32)cc1 [D011-2120]")
"~10%"
>>> val("Cc1ccc(NC(=O)Nc2cc(NC(=O)c3ccc(F)cc3)ccc2N2CCCC2)c(Cl)c1 [F694-1532]")
"significantly reduced"
>>> val("COc1ccccc1CNC(=O)C1c2c(n(C)c3ccccc23)SCC(=O)N1c1ccc(OC)c(OC)c1 (stereo not shown) [G202-0362]")
"~10%"
>>> val("CC1(C(=O)NCc2ccccc2)Cn2c(cc3occc32)C(=O)N1Cc1ccc(Cl)cc1 (stereo not shown) [C795-0925]")
"significantly reduced"
